Form: system (A. baumannii CCARM 12020), quantity (MIC), values below.
observable: MIC

compound | observed-measurement
CC1Sc2c(C(=O)O)c(=O)c3cc(F)c(N4CCN(C(=O)c5ccc([N+](=O)[O-])o5)CC4)cc3n21 (centres unmarked) [Compound 11] | > 16 µg/mL
CC1SC2C(C(=O)O)C(=O)c3cc(F)c(N4CCN(CC(=O)c5ccccn5)CC4)cc3N12 (centres unmarked) [Compound 33] | 4 µg/mL
CC1Sc2c(C(=O)O)c(=O)c3cc(F)c(N4CCN(C(=O)NC(=N)N)CC4)cc3n21 (centres unmarked) [Compound 44] | > 16 µg/mL
Cc1ncc([N+](=O)[O-])n1CC(O)CN1CCN(c2cc3c(cc2F)c(=O)c(C(=O)O)c2n3C(C)S2)CC1 (centres unmarked) [Compound 1] | > 16 µg/mL
CC1Sc2c(C(=O)O)c(=O)c3cc(F)c(N4CCN(Cc5ccc([N+](=O)[O-])o5)CC4)cc3n21 (centres unmarked) [Compound 10] | 8 µg/mL
CC1Sc2c(C(=O)O)c(=O)c3cc(F)c(N4CCN(Cc5nc6cc(Cl)c(Cl)cc6[nH]5)CC4)cc3n21 (centres unmarked) [Compound 21] | > 16 µg/mL
CC1Sc2c(C(=O)O)c(=O)c3cc(F)c(N4CCN(C(=O)c5cccc(Br)n5)CC4)cc3n21 (centres unmarked) [Compound 32] | > 16 µg/mL
CC(=O)NC[C@H]1CN(c2ccc(N3CCN(CC(=O)Nc4ncc([N+](=O)[O-])s4)CC3)c(F)c2)C(=O)O1 [Compound 55] | > 16 µg/mL

Reference source: patent US10570152B2
